Each record here notes measured Plant response rating, Kochia.
# Test system: Kochia (Kochia scoparia)
# protocolNotes: Test A postemergence
# Assay type: in vivo
# conditionSet: 125 g ai/ha, postemergence; visual rating after approx. 10 d, 0 to 100 scale (0 no effect, 100 complete control)
# output: bare number, no unit

- compound: "O=C1NCC(c2cc(C(F)(F)F)ccc2F)C1C(=O)Nc1cccc(F)c1F (stereo not drawn)"
  Plant response rating, Kochia: 0
- compound: "Cc1ccc(C2CNC(=O)C2C(=O)Nc2ccc(F)c(F)c2F)cc1C(F)(F)F (racemic)"
  Plant response rating, Kochia: 0
- compound: "CN1CC(c2cccc(OC(F)F)c2)C(C(=O)Nc2ccccc2F)C1=O (stereo not drawn)"
  Plant response rating, Kochia: 40
- compound: "O=C1NCC(c2ccc(Oc3ccccc3)cc2)C1C(=O)Nc1cccc(F)c1F (racemic)"
  Plant response rating, Kochia: 0
- compound: "NS(=O)(=O)c1ccccc1NC(=O)C1C(=O)NCC1c1cccc(C(F)(F)F)c1 (stereo not drawn)"
  Plant response rating, Kochia: 0

Note: attention shifts to another entry.
Query: Could you tell me which Plant response rating, Kochia is on file for CN1CC(c2ccc(Br)cc2)C(C(=O)Nc2ccccc2S(C)(=O)=O)C1=O (stereo not drawn) ?
Result: 20

---

# Tested on: pigweed (Amaranthus retroflexus)
# protocolNotes: Test A preemergence
# Type: in vivo
# conditionSet: Amaranthus retroflexus, pre-emergence, 240 h, 500 g ai/ha, preemergence; 0 to 100 scale, 0 = no effect, 100 = complete control; read-out: Plant response rating, Pigweed
quantity: pest or weed control at 500 g/ha (%)
Lab book: enter the figure in %, no units written.

- structureSmilesString: "Cc1cc([C@H]2CNC(=O)[C@@H]2C(=O)Nc2ccc(F)cc2F)ccc1Br"
  targetEntity: "pigweed (Amaranthus retroflexus)"
  pest or weed control at 500 g/ha, %: 0

Query: Suppose we examine the compound CN1C[C@H](c2ccc(C(F)(F)F)cc2)[C@@H](C(=O)Nc2ccccc2F)C1=O ; what pest or weed control at 500 g/ha value has been reported?
Result: 80

Query: Which pest or weed control at 500 g/ha is reported for this compound? C=CCN1C[C@H](c2ccc(OC)c(F)c2)[C@@H](C(=O)Nc2ccccc2S(C)(=O)=O)C1=O
Result: 0

Query: Any idea what its pest or weed control at 500 g/ha is? The compound is Cc1cc([C@H]2CNC(=O)[C@@H]2C(=O)Nc2ccccc2F)ccc1F
Result: 30

Query: Name the recorded pest or weed control at 500 g/ha for Cc1cc([C@H]2CNC(=O)[C@@H]2C(=O)Nc2ccc(F)cc2F)ccc1F .
Result: 0

Query: What value of pest or weed control at 500 g/ha has been recorded for this entry: CSc1ccccc1NC(=O)[C@H]1C(=O)N(C)C[C@@H]1c1ccc(C)c(C)c1
Result: 60

Query: Any idea what its pest or weed control at 500 g/ha is? The compound is Cc1cc([C@H]2CN(C)C(=O)[C@@H]2C(=O)Nc2ccc(F)c(F)c2F)ccc1F
Result: 90

Query: Consider the compound CN1C[C@H](c2cc(F)cc(F)c2)[C@@H](C(=O)Nc2ccccc2S(C)(=O)=O)C1=O and give its measured pest or weed control at 500 g/ha.
Result: 30

---

# Tested on: corn (Zea mays)
# protocolNotes: Test G Post-Emergence Protocol
# Format: in vivo
# conditionSet: Zea mays, post-emergence, 312 h, 15.625 g ai/ha, evaluated after 13 days (100=total damage to plant; 0=no damage to plant), read-out: Corn damage rating
Measured plant injury at 15.625 g/ha accompanies every entry in the list below.
Enter your answer as a number in %; do not include the unit.

Worked cases, plant injury at 15.625 g/ha given:
- compound: "CN1C[C@@H](c2ccc(C(F)(F)F)cc2)[C@H](C(=O)Nc2cncc(Cl)n2)C1=O (racemic)"
  targetEntity: "corn (Zea mays)"
  plant injury at 15.625 g/ha / %: 0
- compound: "Cc1nc(F)ccc1NC(=O)[C@@H]1C(=O)N(C)C[C@H]1c1ccc(C(F)(F)F)cc1 (racemic)"
  targetEntity: "corn (Zea mays)"
  plant injury at 15.625 g/ha / %: 0
- compound: "CN1C[C@H](c2ccc3c(c2)OCCO3)[C@@H](C(=O)Nc2cccc(F)c2F)C1=O (racemic)"
  targetEntity: "corn (Zea mays)"
  plant injury at 15.625 g/ha / %: 0
- compound: "COc1c(C)cc(C2CN(C)C(=O)C2C(=O)Nc2cccc(F)c2F)cc1C (stereo not shown)"
  targetEntity: "corn (Zea mays)"
  plant injury at 15.625 g/ha / %: 60
- compound: "COc1c(F)cc(C2CN(C)C(=O)C2C(=O)Nc2cccc(F)c2F)cc1Cl (stereo not shown)"
  targetEntity: "corn (Zea mays)"
  plant injury at 15.625 g/ha / %: 30
- compound: "CN1C[C@@H](c2ccc(C(F)(F)F)cc2)[C@H](C(=O)Nc2cccc3cn[nH]c23)C1=O (racemic)"
  targetEntity: "corn (Zea mays)"
  plant injury at 15.625 g/ha / %: 0
- compound: "Cc1c(NC(=O)[C@H]2C(=O)N(C)C[C@@H]2c2ccc(C(F)(F)F)cc2)cccc1[N+](=O)[O-] (racemic)"
  targetEntity: "corn (Zea mays)"
  plant injury at 15.625 g/ha / %: 10
- compound: "CN1C[C@H](c2ccc(C(F)(F)F)cc2)[C@@H](C(=O)Nc2cnccc2F)C1=O (racemic)"
  targetEntity: "corn (Zea mays)"
  plant injury at 15.625 g/ha / %: 0

Query: For the compound CN1CC(C2CCN=C(C(C)(C)C)N2)C(C(=O)Nc2ccc(F)c(F)c2F)C1=O (stereo not shown) , what plant injury at 15.625 g/ha is on record?
Result: 0

Query: Quick one: plant injury at 15.625 g/ha for Cc1cc(NC(=O)[C@@H]2C(=O)N(C)C[C@H]2c2ccc(C(F)(F)F)cc2)sn1 (racemic) ?
Result: 0

Query: Name the recorded plant injury at 15.625 g/ha for CN1C[C@H](c2ccc(C(F)(F)F)cc2)[C@@H](C(=O)Nc2cccc3c2S(=O)(=O)CC3)C1=O (racemic) .
Result: 0

Query: Find the recorded plant injury at 15.625 g/ha belonging to COC(=O)c1cc([C@H]2CN(C)C(=O)[C@@H]2C(=O)Nc2ccccc2F)ccc1Cl (racemic) and report it.
Result: 10

Query: Fill blank: measured plant injury at 15.625 g/ha of the compound CN1C[C@@H](c2ccc(C(F)(F)F)cc2)[C@H](C(=O)Nc2cccnc2F)C1=O (racemic) is ____.
Result: 0

Query: Item under review: Cc1c[nH]nc1NC(=O)[C@@H]1C(=O)N(C)C[C@H]1c1ccc(C(F)(F)F)cc1 (racemic) . Reported plant injury at 15.625 g/ha?
Result: 0

Query: Recorded plant injury at 15.625 g/ha for CN1C[C@@H](c2ccc(C(F)(F)F)cc2)[C@H](C(=O)Nc2cc(Cl)n[nH]2)C1=O (racemic) , please?
Result: 0

Query: Return reported plant injury at 15.625 g/ha; argument: Cc1nc(F)ccc1[C@@H]1CN(C)C(=O)[C@H]1C(=O)Nc1cccc(F)c1F (racemic)
Result: 0

Query: Please look up its plant injury at 15.625 g/ha: CCc1nc(NC(=O)[C@@H]2C(=O)N(C)C[C@H]2c2ccc(C(F)(F)F)cc2)n[nH]1 (racemic)
Result: 0

Query: # get_value(readout='plant injury at 15.625 g/ha', item= CN1C[C@H](c2cccc(C(F)F)c2)[C@@H](C(=O)Nc2ccccc2S(C)(=O)=O)C1=O (racemic) )
Result: 0

Query: I'd like to know its plant injury at 15.625 g/ha. The compound in question is CN1C[C@H](c2ccc(C(F)(F)F)cc2)[C@@H](C(=O)Nc2cccnc2[N+](=O)[O-])C1=O (racemic)
Result: 0

Query: Which measured plant injury at 15.625 g/ha value corresponds to COc1cc(C2CN(C)C(=O)C2C(=O)Nc2cccc(F)c2F)cc(Cl)c1OC (stereo not shown) ?
Result: 0

Query: Given CN1C[C@H](c2ccc(C(F)(F)F)cc2)[C@@H](C(=O)Nc2ncccc2[N+](=O)[O-])C1=O (racemic) , state its recorded plant injury at 15.625 g/ha.
Result: 0

Query: # plant injury at 15.625 g/ha lookup, item CC(C)Oc1cc(F)cc(C2CN(C)C(=O)C2C(=O)Nc2cccc(F)c2F)c1 (stereo not shown)
Result: 0

Query: Suppose we examine the compound CN1C[C@H](c2ccc3ccccc3c2)[C@@H](C(=O)Nc2cccc(F)c2F)C1=O (racemic) ; what plant injury at 15.625 g/ha value has been reported?
Result: 10

Query: So what's the measured plant injury at 15.625 g/ha for this one? COC(=O)c1cc([C@H]2CN(C)C(=O)[C@@H]2C(=O)Nc2cccc(F)c2F)ccc1F (racemic)
Result: 0

Query: Given the entry Cc1cc(Cl)ccc1NC(=O)[C@H]1C(=O)N(C)C[C@@H]1c1ccc(C(F)(F)F)cc1 (racemic) , report its measured plant injury at 15.625 g/ha.
Result: 0

Query: Tell me the measured plant injury at 15.625 g/ha of Cc1ccc([C@H]2CN(C)C(=O)[C@@H]2C(=O)Nc2cccnc2F)cc1 , please.
Result: 30

Query: Param item = CN1C[C@H](c2ccc(C(F)(F)F)cc2)[C@@H](C(=O)Nc2ccc(C(F)(F)F)c(F)c2F)C1=O (racemic) ; retrieve measured plant injury at 15.625 g/ha.
Result: 0

Query: Give its plant injury at 15.625 g/ha value. Item: COc1cc([C@H]2CN(C)C(=O)[C@@H]2C(=O)Nc2ccccc2F)ccc1Cl (racemic)
Result: 10
